experiment notes: soluble fraction after stress (log2 fold change); higher = more stays soluble; pooled small domains, quantitative proteomics
assay context: stress: pH 4
Assign 1 to entries whose soluble fraction (log2) meets or exceeds -0.1; assign 0 to the rest.

Exercise: I'd appreciate it if you could say whether `HMGFPAPFDGKAVAELRRRLGLTRRGLAEELSVSPSTVDKWEQGDVALRSPALTILKILWHQGLKALPP` has soluble fraction (log2) at least equal to -0.1.
Solution: 1

New cases:
Exercise: Exam item: decide whether the reported soluble fraction (log2) for `HMVNDQSIYASEGYVHIRSGKPVSLRIYTILGALYRHEERLVGDHVIALPRGLYIVVLNHTAKKIMV` is at least -0.1.
Solution: 1

Exercise: Can `HMTEEPISDGIKKLVEEWENIEGNLIMIFHGIQKHYGYVPRNVAKYVSEAIDVPLTRIYEILTFYNYFTM` be said to have soluble fraction (log2) at or above -0.1?
Solution: 0

---

experiment notes: soluble fraction after stress (log2 fold change); higher = more stays soluble; pooled small domains, quantitative proteomics
assay context: stress: pH 4
# binarize soluble fraction (log2): threshold -0.4 inclusive, high side MET, low side NOT MET

Examples with answers:
Exercise: Textbook exercise: given the entry `HMPTELVYTVPASAEGLRLDHFLVQHVPHMTRALATELTGAGGVRVNGRRAKKGDRLPSGAEVRLER` , state whether its soluble fraction (log2) is greater than or equal to -0.4.
Solution: MET

Exercise: hey, is soluble fraction (log2) for this one >= -0.4? `HMSEGEMSQWIIAQAKQQGGGFQPDAARLLGSYVGNNTLRARQEIDKLLTYVGPSRVVTPEDVVLLTA`
Solution: MET

Exercise: For this sequence, is measured soluble fraction (log2) -0.4 or higher? `HMPDRQKDIQNWQQIAETLLNMLDKYVAALETGKTGLAEAYKAIFAETLRRLDDRLDPEQFLP`
Solution: NOT MET

Exercise: Dear colleague, could you confirm whether `HMAPELSGEKLWDAQDVAMFLRVKPTTVWSYVSRDGFPAPVSQAGRAGMWSEPLVVQWYLSRPG` has soluble fraction (log2) at or above -0.4?
Solution: MET

***
Exercise: Threshold query (soluble fraction (log2) >= -0.4) on `HMLGKEVVRAYNISYAIDDKGSLQGDLTAALTGLIPLSKPPVLDQRNRSLYVTATPEQHKDVAALLAKL`
Solution: MET

Exercise: Determine whether this sequence has soluble fraction (log2) no lower than -0.4: `HMGTHDAGTRFFDNLDSLLQNRDATRADVLAVYLLAVSLGFRGKHRSVSSAPQIAHYRNQAYVTLFQ`
Solution: MET

Exercise: Is soluble fraction (log2) for `HMHHDDHNQQEEIKEKLLAMVADGERHHVTEVRQLDEDWDMVTKVMKELMDEEQLLMDGSYLILSA` at or above -0.4?
Solution: NOT MET

Exercise: Test whether the sequence `HMEDVDLFTKAMAALPNRYRDILLLRYSHGYTVEEISDILSMKPENVKKTIQRARKKLGEILEAEG` records soluble fraction (log2) of -0.4 or higher.
Solution: MET

Exercise: Reported soluble fraction (log2) reaches at least -0.4 for `HMSQLSQIVDAFGGLRPFARALNKPPSTVQYWIEKGGIPASVVSPIMKLSEEKGLGLSRDQVSAAVS` ?
Solution: MET

Exercise: Check if soluble fraction (log2) >= -0.4 (inclusive). Item: `HMRAAFEHLTIGQTVSGLVKSQARGVSLVEIEGQTVAMRLPQPVAVGDTLRLRFAGHMPQPVFLLDT`
Solution: MET

Exercise: Determine whether measured soluble fraction (log2) meets or exceeds -0.4 for `HMALSGTVQNFAGGIMILIFRPFKTGDYIEALGYFGKVSEVNIVSTKLRTFDNKTIILPNGALSNGNIQNY`
Solution: NOT MET

---

experiment notes: soluble fraction after stress (log2 fold change); higher = more stays soluble; pooled small domains, quantitative proteomics
assay context: stress: pH 4
readout label: soluble fraction (log2)
Please give the numeric answer without any surrounding text.

Exercise: Report soluble fraction (log2), nothing else, for this sequence: `HMGGQKTREAIFDLIMTNSKITSAQIAEILGIHRSGVARHLKKLQEEGLIKREGPDNGGQWIVIK`
Solution: -0.298

Exercise: State its soluble fraction (log2) for this sequence: `HMKNIMRQWIELEPDQGKIRSKLYSLDRVVEETTNEVGMIKLLLEIDEKELNNLVSHNDIRLV`
Solution: -0.625

Exercise: Give the measured soluble fraction (log2) for `HMERLKYSQVVDLFKGEQVKSFVLDESNQLKMELQDGSTVSYKLRSFEQFYLDLSDTVKEQKESGIITDYD`
Solution: -1.72

Exercise: Dear colleague, please send me the reported soluble fraction (log2) for `HMTVEMYIGKTANVLETVTENNGRIAIFGEEWQAKSLNGETIEKGAQAKIVKNDSIIMYVVPI` when you can.
Solution: -0.367

Exercise: Please supply the value of reported soluble fraction (log2) for the item `HMKEQIKVPDLSNKTPEEAKKELNTLGLGARKGGEESSDTVEEGLITRQEPAAGEQVDKNTQILFYVSTGK`
Solution: 0.0545

Exercise: State its soluble fraction (log2): `HMSFPQVELNTNKGRIVLELNSEKAPKTVANFLEYVRDGFYDGVIFHRVIDGFMIQGGGFDENFKEKA`
Solution: -0.275

Exercise: Answer with the recorded soluble fraction (log2) for the sequence listed here: `HMRYNPETTAGRRGLIIKMLDEYGQVNVNELSRYFNVSEVTVRNDLAYLERKNLLIRARGGAIKTE`
Solution: 0.0289

Exercise: Output soluble fraction (log2) of `HMTMEFGEFLAKLRKERGYYQKEVAAYLNVTVATISNYEKNVHAPDLDTLVKLADFYDVSTDYLLQRT`
Solution: -1.46

Exercise: Recall and state the measured soluble fraction (log2) for `HMIERLVVSPAAGVFTKKMSVENNTRIDVGHVLGHVGETEVRSPFAGILQNYIAVDGERLTAHQPIAWLRS` .
Solution: 0.15

Exercise: Answer with the recorded soluble fraction (log2) of `HMPMTRILFLPDDRTILQFDSAEPAEDLVSAVNAGRWLPPEPYRSGFGLGLPENRLRASRQGALVVVMLS` only.
Solution: -1.19

Exercise: Supply measured soluble fraction (log2) of `HMDIVENSMPNVVGLELNRAKELMTQLGFTNVRYEPTESSRPENEVVYQSVDKDETLDVSSEIIIQYSSGV` in your reply.
Solution: -0.535

Exercise: Identify soluble fraction (log2) associated with the sequence `HMSDDLLTGLDAYSRGDWTTATASFERVLTTADPNNRTEALYWLVMSETSAQNYQRALNYANTFL`
Solution: -0.887

Exercise: Recall and state the measured soluble fraction (log2) for `HMVKTANVAYSEFLKLVESDNISDVSIVGRTITGHLDDGTKFSTYTPPNDPSLIDKLTRKNVIIKSAPE` .
Solution: 0.181

---

experiment notes: soluble fraction after stress (log2 fold change); higher = more stays soluble; pooled small domains, quantitative proteomics
assay context: stress: pH 4
Measured soluble fraction (log2) accompanies every entry in the list below.
Reply briefly: the number, and no unit.

Exercise: Name the recorded soluble fraction (log2) of the sequence listed here: `HMDPEARRRAILNAAIDVIVEKGAAALTHRAVAARAGVSLGSTTKYFSSIEDLRENAMDALVREMD`
Solution: -0.756

---
Exercise: Provide only the value of recorded soluble fraction (log2) for `HMFIEMDEPEKILHRILNEANGKLELDKIGYRAEWPIGKVLTVLMSLELKGVVQSHPGKVYSL`
Solution: -0.464

Exercise: Look up soluble fraction (log2) of `HMVSGSPTVDILMQRGLEYQQQENLEAARDAFDRAINLKPDYAEAWNRRAVLFFNEGKYDEAIADLETAIT` and report it.
Solution: -0.0941

---

experiment notes: soluble fraction after stress (log2 fold change); higher = more stays soluble; pooled small domains, quantitative proteomics
assay context: stress: pH 4
readout label: soluble fraction (log2)
In your answer, state the number alone without any accompanying words.

Example results:
Exercise: Find the measured soluble fraction (log2) of `HMNKPKIIINSVDDSVFSDYVKDSLSIAEVARSIGIDNNKINTSVYREIHKRIDSLKLDTSHFTGGAWN` and report it.
Solution: -0.634

Exercise: Give me measured soluble fraction (log2), please, for this sequence: `HMAIDLSLIPGNLLRELHGAVEDGDMYRIRELIRSISAVDEKVGKELLLLAERYDYERLLELVND`
Solution: -1.03

Exercise: Supply reported soluble fraction (log2) belonging to this sequence: `HMHSPLLDRYLAEVGWRLRHLSGAQREDILAGLREHIADLESAGVAPEEIVARLGSPESVADAAAGEF`
Solution: 0.0489

Exercise: Identify measured soluble fraction (log2) corresponding to `HMDSILSIVGGEESYKALLAWAENNISQQELQQLETILKSGNVPAIKRVLVTLMNRFNQAQS`
Solution: -0.547

Exercise: For the sequence `HMTSMTHLGRHPDSEISLDDISVSRRHAEIERQGHEYVLRDSGSLNGTYVNQQRVDSVVLQQGDEIL` , report soluble fraction (log2).
Solution: -0.277

Could you now consider this next sequence?
Exercise: Give soluble fraction (log2) for `HMTDVIADMLTRIRNAASSKHQTVDIPSSNLKKEIAKILLEEGYIRDFIEIDDKKQGIIRITL`
Solution: -0.617
